Origin of measurements: patent US20250163162A1

Biological target: T1, IL10Rα/IL2Rγ receptor (human) (UniProt Q13651)
T1 sequence (looked up) 1: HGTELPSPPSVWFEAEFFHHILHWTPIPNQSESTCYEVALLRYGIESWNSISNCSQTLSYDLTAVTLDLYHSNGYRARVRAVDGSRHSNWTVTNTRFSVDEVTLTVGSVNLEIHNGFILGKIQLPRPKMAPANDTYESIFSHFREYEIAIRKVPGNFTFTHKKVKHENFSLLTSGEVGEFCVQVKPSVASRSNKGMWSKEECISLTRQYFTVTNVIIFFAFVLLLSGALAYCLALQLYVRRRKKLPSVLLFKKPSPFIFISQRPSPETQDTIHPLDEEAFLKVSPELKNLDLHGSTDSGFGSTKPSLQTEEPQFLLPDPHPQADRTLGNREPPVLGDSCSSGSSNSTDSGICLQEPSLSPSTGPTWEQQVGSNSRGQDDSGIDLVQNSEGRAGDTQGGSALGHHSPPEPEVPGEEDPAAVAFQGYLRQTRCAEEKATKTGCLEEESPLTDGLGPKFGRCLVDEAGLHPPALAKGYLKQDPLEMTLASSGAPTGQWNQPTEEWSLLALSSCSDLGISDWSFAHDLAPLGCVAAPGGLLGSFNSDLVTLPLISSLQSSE
T1 sequence (looked up) 2: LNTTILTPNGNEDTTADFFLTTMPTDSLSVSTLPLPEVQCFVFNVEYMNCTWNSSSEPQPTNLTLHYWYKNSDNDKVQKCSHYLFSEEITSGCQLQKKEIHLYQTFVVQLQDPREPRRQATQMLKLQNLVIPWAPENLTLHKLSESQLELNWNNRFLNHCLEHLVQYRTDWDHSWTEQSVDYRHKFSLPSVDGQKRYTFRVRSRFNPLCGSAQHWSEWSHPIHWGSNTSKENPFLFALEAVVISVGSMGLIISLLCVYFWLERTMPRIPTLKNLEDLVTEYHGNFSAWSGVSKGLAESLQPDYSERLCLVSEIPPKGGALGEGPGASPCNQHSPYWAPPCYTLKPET
Assay: cell-based or functional assay
Reported IL-9 secretion, CD8 T cells, at 0 µM values for a set of binders
Report the figure in pg/mL without appending any unit label.

Completed entries (count: 2):
{"columns": ["BINDER", "UNIT_ABBREV", "IL-9 secretion, CD8 T cells, at 0 µM"],
 "data": [
  ["hIL10Ra_VHH14 - hIL2Rg_VHH19, linker GGGSGGGS, tag his (bispecific antibody, not shown: small tags and cut ends) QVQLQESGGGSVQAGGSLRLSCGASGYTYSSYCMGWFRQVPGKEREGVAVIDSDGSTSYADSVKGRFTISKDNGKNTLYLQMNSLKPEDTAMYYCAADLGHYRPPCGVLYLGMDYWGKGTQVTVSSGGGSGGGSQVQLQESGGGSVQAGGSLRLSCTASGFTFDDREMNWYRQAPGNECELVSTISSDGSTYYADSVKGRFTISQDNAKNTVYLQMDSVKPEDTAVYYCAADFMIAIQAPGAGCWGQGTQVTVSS", "pg/mL", 1350],
  ["hIL10Ra_VHH14 - hIL2Rg_VHH19, linker GGGS, tag his (bispecific antibody, not shown: small tags and cut ends) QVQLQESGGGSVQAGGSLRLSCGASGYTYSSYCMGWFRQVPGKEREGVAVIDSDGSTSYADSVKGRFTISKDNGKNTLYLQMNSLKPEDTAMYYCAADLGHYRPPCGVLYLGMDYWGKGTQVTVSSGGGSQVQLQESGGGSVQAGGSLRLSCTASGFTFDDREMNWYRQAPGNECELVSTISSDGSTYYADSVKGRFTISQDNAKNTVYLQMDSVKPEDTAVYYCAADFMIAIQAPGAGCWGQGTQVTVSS", "pg/mL", 1350]
]}

With those in mind, consider the next binder.
Request: Tell me the measured IL-9 secretion, CD8 T cells, at 0 µM of hIL10Ra_VHH14 - hIL2Rg_VHH19, linker GGGS, tag Fc (bispecific antibody, not shown: a dimerising Fc or GST) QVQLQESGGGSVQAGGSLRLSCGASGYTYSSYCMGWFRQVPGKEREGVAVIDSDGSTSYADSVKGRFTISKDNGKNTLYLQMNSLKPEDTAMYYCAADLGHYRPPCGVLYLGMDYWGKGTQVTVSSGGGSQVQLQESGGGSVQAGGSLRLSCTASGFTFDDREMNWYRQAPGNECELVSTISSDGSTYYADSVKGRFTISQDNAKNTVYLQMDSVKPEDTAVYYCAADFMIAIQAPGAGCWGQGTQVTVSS , please.
Result: 1350
